Recorded measurements of ADCC cytotoxic activity (51Cr release) on RD-ES, one per entry
- TESTED_SYSTEM: T1, CAPRIN-1 protein expressed on the membrane surface of human cancer cells (human, UniProt Q14444 2-709)
- T1 sequence (looked up): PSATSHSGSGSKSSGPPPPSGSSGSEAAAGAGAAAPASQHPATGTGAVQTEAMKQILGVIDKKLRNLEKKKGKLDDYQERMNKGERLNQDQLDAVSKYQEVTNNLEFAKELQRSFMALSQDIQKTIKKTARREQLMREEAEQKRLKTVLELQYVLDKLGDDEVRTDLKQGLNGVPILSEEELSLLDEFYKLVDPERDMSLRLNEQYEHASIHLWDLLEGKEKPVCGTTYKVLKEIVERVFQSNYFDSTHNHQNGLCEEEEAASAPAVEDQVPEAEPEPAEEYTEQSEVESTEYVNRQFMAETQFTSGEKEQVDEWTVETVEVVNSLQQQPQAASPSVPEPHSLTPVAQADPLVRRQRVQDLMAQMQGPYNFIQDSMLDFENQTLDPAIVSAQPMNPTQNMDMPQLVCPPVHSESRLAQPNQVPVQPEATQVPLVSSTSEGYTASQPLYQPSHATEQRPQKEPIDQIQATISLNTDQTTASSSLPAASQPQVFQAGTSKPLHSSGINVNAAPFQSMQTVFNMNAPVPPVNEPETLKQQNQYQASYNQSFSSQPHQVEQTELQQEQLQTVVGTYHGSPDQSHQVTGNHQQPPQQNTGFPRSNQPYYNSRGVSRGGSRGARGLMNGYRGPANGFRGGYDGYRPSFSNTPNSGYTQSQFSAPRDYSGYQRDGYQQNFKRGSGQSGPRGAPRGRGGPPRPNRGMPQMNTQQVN
- MEASUREMENT_NOTES: cell-based or functional assay

response.value for humanized antibody #7 (antibody, V domains shown) VH: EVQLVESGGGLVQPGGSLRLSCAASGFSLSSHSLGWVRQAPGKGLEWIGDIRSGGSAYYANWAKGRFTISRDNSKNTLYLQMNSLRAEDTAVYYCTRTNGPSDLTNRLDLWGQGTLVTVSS VL: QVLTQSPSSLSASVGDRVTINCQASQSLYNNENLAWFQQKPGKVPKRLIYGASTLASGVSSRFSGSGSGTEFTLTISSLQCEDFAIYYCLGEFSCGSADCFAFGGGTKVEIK (field: ADCC cytotoxic activity (51Cr release) on RD-ES) = ≥ 48%

Query humanized antibody #4 (antibody, V domains shown) VH: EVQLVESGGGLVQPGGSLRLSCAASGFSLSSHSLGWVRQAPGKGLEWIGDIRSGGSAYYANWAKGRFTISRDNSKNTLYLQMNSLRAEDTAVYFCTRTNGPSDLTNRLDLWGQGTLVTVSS VL: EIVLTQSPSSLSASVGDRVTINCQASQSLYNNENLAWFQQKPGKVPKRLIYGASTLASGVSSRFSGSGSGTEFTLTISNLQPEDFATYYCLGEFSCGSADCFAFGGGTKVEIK yields ADCC cytotoxic activity (51Cr release) on RD-ES of ≥ 40%

// ADCC cytotoxic activity (51Cr release) on RD-ES lookup, binder = human-rabbit chimeric anti-CAPRIN-1 antibody (antibody, V domains shown) VH: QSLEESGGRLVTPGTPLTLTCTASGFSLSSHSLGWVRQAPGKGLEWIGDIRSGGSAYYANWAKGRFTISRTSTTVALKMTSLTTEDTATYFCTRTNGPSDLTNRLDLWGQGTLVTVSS VL: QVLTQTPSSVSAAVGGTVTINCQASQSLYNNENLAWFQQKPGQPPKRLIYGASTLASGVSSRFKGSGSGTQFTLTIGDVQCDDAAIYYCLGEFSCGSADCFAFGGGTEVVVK , result: ≥ 31%
